List of IC50 values.
Target: FLuc-C-HiBiT (Photinus pyralis, UniProt P08659)
Construct: firefly luciferase with C-terminal HiBiT tag, E. coli expressed
Sequence (P08659 whole entry, looked up): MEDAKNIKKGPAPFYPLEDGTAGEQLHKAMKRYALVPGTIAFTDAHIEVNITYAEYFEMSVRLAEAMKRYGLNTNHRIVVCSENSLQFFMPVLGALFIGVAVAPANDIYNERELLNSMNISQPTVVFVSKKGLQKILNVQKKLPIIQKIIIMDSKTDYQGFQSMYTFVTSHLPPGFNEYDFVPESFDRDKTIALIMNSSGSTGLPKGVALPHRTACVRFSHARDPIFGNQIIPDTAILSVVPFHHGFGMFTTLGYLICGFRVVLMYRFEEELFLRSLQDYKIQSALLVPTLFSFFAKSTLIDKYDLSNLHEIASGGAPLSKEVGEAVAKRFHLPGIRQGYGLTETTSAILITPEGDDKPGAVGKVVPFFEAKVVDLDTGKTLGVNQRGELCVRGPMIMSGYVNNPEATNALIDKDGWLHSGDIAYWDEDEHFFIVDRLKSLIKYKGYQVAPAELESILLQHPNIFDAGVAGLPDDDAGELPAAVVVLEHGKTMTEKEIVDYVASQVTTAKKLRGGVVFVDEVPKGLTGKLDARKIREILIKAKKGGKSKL
Assay: biochemical
Conditions: enzyme activity, 10 uM ATP; read-out: IC50 or SDR50 (mM) / FLuc E

Smiles Entry	Target Or System	Readout Unit	Limit Operator	IC50
CC(C)c1ccc(NC(=O)c2ccc(CN3C(=O)NC4(CCOCC4)C3=O)cc2)cc1	FLuc-C-HiBiT (Photinus pyralis, UniProt P08659)	mM	=	0.00351
Cn1ccc2c(C(=O)NCc3cccnc3)nc(-c3ccc(N4CCOCC4)cc3)cc21	FLuc-C-HiBiT (Photinus pyralis, UniProt P08659)	mM	=	0.018
C[S+](=O)([O-])CCn1ncc2cc(OCc3cccc(-c4ccccc4O)c3)ccc21	FLuc-C-HiBiT (Photinus pyralis, UniProt P08659)	mM	=	0.0143
Clc1ccc2c(c1)-n1cc(-c3ccccc3)nc1CO2	FLuc-C-HiBiT (Photinus pyralis, UniProt P08659)	mM	>	0.03
